Read-out: Plasminogen activator inhibitor-1 (PAI1), SERPINE1 (gene 5054)
Experiment: BSK_BE3C_PAI1: BioMAP Diversity Plus: BE3C Assay for Plasminogen activator inhibitor-1 (PAI1) Biomarker Activity (AID 2283037)
Conditions: primary human bronchial epithelial cells; actives raise or lower the signal
Calls of active or inactive are those of the source. Rule for the calls: active = hit-call score of the fitted dose curve at least 0.9, where 1 is the maximum; inactive = score below 0.9.
Your answer must be one of the following: label 1 = active, label 0 = inactive

# COMPOUND, CLASS_LABEL
rows = [
    ("CS(=O)(=O)c1ccc(C2=C(c3ccccc3)C(=O)OC2)cc1", "label 0"),
    ("Clc1cc(Cl)c(-c2c(Cl)c(Cl)cc(Cl)c2Cl)cc1Cl", "label 1"),
    ("c1ccc(CCc2ccccc2)cc1", "label 1"),
    ("CCN(CC)C(=O)N(CC)CC", "label 0"),
    ("C=C(C)C(=O)OCC(CC)(COC(=O)C(=C)C)COC(=O)C(=C)C", "label 0"),
    ("c1ccc(Oc2ccccc2)cc1", "label 0"),
    ("Cc1cc(CCC(=O)OCCOCCOCCOC(=O)CCc2cc(C)c(O)c(C(C)(C)C)c2)cc(C(C)(C)C)c1O", "label 0"),
    ("CC(CN=Cc1ccccc1O)N=Cc1ccccc1O (stereo not given)", "label 0"),
]

GET /call?item= C=C(C)[C@H]1CC=C(C)C(=O)C1 returns the recorded outcome of this test.
label 0

GET /call?item= CC(=O)c1c(C)c([N+](=O)[O-])c(C(C)(C)C)c([N+](=O)[O-])c1C returns the recorded outcome of this test.
label 0

GET /call?item= C=C(C)C(=O)OCCOCCOCCOCCOC(=O)C(=C)C returns the recorded outcome of this test.
label 0

GET /call?item= O=C(Nc1ccc2c(O)c(N=Nc3ccc(N=Nc4ccc(S(=O)(=O)O)cc4)cc3)c(S(=O)(=O)O)cc2c1)c1ccccc1 returns the recorded outcome of this test.
label 0

GET /call?item= O=C1OC2(c3ccccc31)c1ccc(O)c(Br)c1Oc1c2ccc(O)c1Br returns the recorded outcome of this test.
label 0

GET /call?item= C=CC(C)(O)CCC=C(C)C (stereo not given) returns the recorded outcome of this test.
label 0

GET /call?item= CSCCC=O returns the recorded outcome of this test.
label 0

###

Read-out: Matrix Metallopeptidase 1 (MMP1), MMP1 (gene 4312)
Assay: BSK_MyoF_MMP1: BioMAP Diversity Plus: MyoF Assay for Matrix Metallopeptidase 1 (MMP1) Biomarker Activity (AID 2284268)
Settings: primary human lung fibroblasts
Active and inactive are the calls of the source. Rule for the calls: active = hit-call score of the fitted dose curve at least 0.9, where 1 is the maximum; inactive = score below 0.9.
Your answer must be one of the following: active, inactive

GET /call?item= CN(C)C(=S)SC(=S)N(C)C returns the recorded outcome of this test.
active

GET /call?item= C=C(C)[C@H]1CC=C(C)C(=O)C1 returns the recorded outcome of this test.
inactive

GET /call?item= COc1cc(Cl)c(OC)cc1N returns the recorded outcome of this test.
inactive

###

Assay: ATG_SREBP_CIS: Attagene CIS-FACTORIAL HepG2 Assay for human Sterol Regulatory Element Binding (SREBP) (AID 2282962)
Conditions: HepG2 Attagene cis-factorial SREBP reporter, mRNA; actives raise or lower the signal
Activity calls are given as the source filed them. Rule for the calls: active = hit-call score of the fitted dose curve at least 0.9, where 1 is the maximum; inactive = score below 0.9.
Your answer must be one of the following: TRUE (active), FALSE (inactive)

Worked examples, 5 compounds total:
# COMPOUND, CLASS_LABEL
data = [
    ("O=C(c1ccccc1)C(O)c1ccccc1 (stereo not drawn)", "FALSE"),
    ("BrCc1cccc(Oc2ccccc2)c1", "FALSE"),
    ("c1ccc(CCc2ccccc2)cc1", "FALSE"),
    ("CCCCCCCC(=O)OCCCCCC", "FALSE"),
    ("CC(C)c1ccccc1O", "FALSE"),
]

GET /call?item= CCc1cc(C(C)(C)C)c(O)c(C(C)(C)C)c1 returns the recorded outcome of this test.
TRUE

GET /call?item= COC(=O)C=C(C)CCC=C(C)C returns the recorded outcome of this test.
FALSE

GET /call?item= CC(=O)O[C@@H]1CC2CCC1(C)C2(C)C (stereo partly drawn) returns the recorded outcome of this test.
FALSE

###

Experiment: ATG_TA_CIS: Attagene CIS-FACTORIAL HepG2 Assay for human TA Basal Promoter (AID 2282964)
Details: HepG2 Attagene CIS-factorial TA basal promoter reporter; actives raise or lower the signal
Active and inactive are the calls of the source. The calls were made as follows: active = hit-call score of the fitted dose curve at least 0.9, where 1 is the maximum; inactive = score below 0.9.
Your answer must be one of the following: yes (1) (active), no (0) (inactive)

Worked examples, 3 molecules total:
# MOLECULE, CLASS_LABEL
records = [
    ("COc1cc(C(C)C)ccc1C", "no (0)"),
    ("C[C@H]1O[C@@H](O[C@H]2[C@@H](O)C[C@H](O[C@H]3[C@@H](O)C[C@H](O[C@H]4CC[C@@]5(C)[C@H](CC[C@@H]6[C@@H]5C[C@@H](O)[C@]5(C)[C@@H](C7=CC(=O)OC7)CC[C@]65O)C4)O[C@@H]3C)O[C@@H]2C)C[C@H](O)[C@@H]1O", "no (0)"),
    ("CC(C)c1ccccc1O", "no (0)"),
]

GET /call?item= N#Cc1cscn1 returns the recorded outcome of this test.
no (0)

GET /call?item= C1CCCCC1 returns the recorded outcome of this test.
no (0)

GET /call?item= CS(=O)(=O)OCCCCOS(C)(=O)=O returns the recorded outcome of this test.
no (0)

GET /call?item= CCC(Cl)C(Cl)C(Cl)CC(Cl)C(Cl)C(C)Cl (stereo unspecified) returns the recorded outcome of this test.
no (0)

GET /call?item= CCCC(=O)OCCc1ccccc1 returns the recorded outcome of this test.
no (0)

GET /call?item= Cc1c(C2(c3cc(Br)c(O)c(Br)c3C)OS(=O)(=O)c3ccccc32)cc(Br)c(O)c1Br returns the recorded outcome of this test.
no (0)

GET /call?item= O=C(CS)OCCOC(=O)CS returns the recorded outcome of this test.
no (0)

GET /call?item= O=C(CC(=O)c1ccccc1)c1ccccc1 returns the recorded outcome of this test.
no (0)

GET /call?item= Nc1ccc(NCCO)c([N+](=O)[O-])c1 returns the recorded outcome of this test.
no (0)

GET /call?item= C#CC(C)N(C)C(=O)Nc1ccc(Cl)cc1 (stereo unspecified) returns the recorded outcome of this test.
no (0)

GET /call?item= COC(=O)Nc1ccc(Cl)c(Cl)c1 returns the recorded outcome of this test.
no (0)

GET /call?item= C[C@H](CCC(=O)NCC(=O)O)[C@H]1CC[C@H]2[C@@H]3[C@H](O)C[C@@H]4C[C@H](O)CC[C@]4(C)[C@H]3C[C@H](O)[C@]12C returns the recorded outcome of this test.
no (0)

GET /call?item= CCCCCC(=O)CC returns the recorded outcome of this test.
no (0)

GET /call?item= Cc1ccc(S(=O)(=O)Oc2ccc(N=Nc3ccc(-c4ccc(N=Nc5c(O)ccc6cc(S(=O)(=O)O)cc(S(=O)(=O)O)c56)c(C)c4)cc3C)cc2)cc1 returns the recorded outcome of this test.
no (0)

GET /call?item= BrCc1cccc(Oc2ccccc2)c1 returns the recorded outcome of this test.
no (0)

GET /call?item= NCc1ccco1 returns the recorded outcome of this test.
no (0)

###

Read-out: Plasminogen activator inhibitor-1 (PAI1), SERPINE1 (gene 5054)
Assay: BSK_hDFCGF_PAI1: BioMAP Diversity Plus: hDFCGF Assay for Plasminogen activator inhibitor-1 (PAI1) Biomarker Activity (AID 2283066)
Conditions: primary human foreskin fibroblasts; actives raise or lower the signal
Active and inactive are the calls of the source. Rule for the calls: active = hit-call score of the fitted dose curve at least 0.9, where 1 is the maximum; inactive = score below 0.9.
Your answer must be one of the following: active, inactive

# COMPOUND, CLASS_LABEL
measured = [
    ("CC(C=O)Cc1ccc(C(C)(C)C)cc1 (stereo unspecified)", "active"),
    ("CSCCC=O", "inactive"),
    ("Clc1cc(Cl)c(-c2c(Cl)c(Cl)cc(Cl)c2Cl)cc1Cl", "active"),
    ("CCOC(=O)C(C#N)=C(c1ccccc1)c1ccccc1", "inactive"),
    ("CC(=O)c1c(C)c([N+](=O)[O-])c(C(C)(C)C)c([N+](=O)[O-])c1C", "inactive"),
]

GET /call?item= COc1ccc(CCN2CCC(Nc3nc4ccccc4n3Cc3ccc(F)cc3)CC2)cc1 returns the recorded outcome of this test.
active

###

Read-out: Decorin, DCN (gene 1634)
Experiment: BSK_MyoF_Decorin: BioMAP Diversity Plus: MyoF Assay for Decorin Biomarker Activity (AID 2284265)
Conditions: primary human lung fibroblasts
Active and inactive are the calls of the source. Rule for the calls: active = hit-call score of the fitted dose curve at least 0.9, where 1 is the maximum; inactive = score below 0.9.
Your answer must be one of the following: yes = active, no = inactive

Worked examples, 5 compounds total:
# COMPOUND, CLASS_LABEL
data = [
    ("CCCCCCCCCCCCCCCC(=O)OC/C=C(C)/C=C/C=C(C)/C=C/C1=C(C)CCCC1(C)C", "no"),
    ("CC(=O)Nc1ccc(C(=O)CCl)cc1", "no"),
    ("C=C(C)C(=O)OCC(CC)(COC(=O)C(=C)C)COC(=O)C(=C)C", "yes"),
    ("CC(C)(N=C=O)c1cccc(C(C)(C)N=C=O)c1", "no"),
    ("Oc1c(Cl)cc(Cl)c(Cl)c1Cc1c(O)c(Cl)cc(Cl)c1Cl", "no"),
]

GET /call?item= IC(I)I returns the recorded outcome of this test.
no

GET /call?item= Clc1cc(Cl)c(-c2c(Cl)c(Cl)cc(Cl)c2Cl)cc1Cl returns the recorded outcome of this test.
no

GET /call?item= CC(C)(C)CC(C)(C)c1ccc(OCCOCC[N+](C)(C)Cc2ccccc2)cc1 returns the recorded outcome of this test.
no

GET /call?item= O=C1OC2(c3ccccc31)c1ccc(O)c(Br)c1Oc1c2ccc(O)c1Br returns the recorded outcome of this test.
no

GET /call?item= CC(C=O)Cc1ccc(C(C)(C)C)cc1 (stereo unspecified) returns the recorded outcome of this test.
no

GET /call?item= CCC(C)c1cc([N+](=O)[O-])cc([N+](=O)[O-])c1OC(=O)OC(C)C (stereo unspecified) returns the recorded outcome of this test.
yes
